Test: Single dose 300 mg / 450 mg pharmacokinetic, safety and tolerability study in healthy male and female subjects
Conditions: male, human, plasma, po, 300 mg, t½ (Harmonic mean), single oral 300 mg DOV 21,947 HCl IR, N = 5
property.measured: half-life (h)

In [3]: df
Out[3]:
                                   compound  units_of_measure  readout_value
0  O=C1NCC2(c3ccc(Cl)c(Cl)c3)CC12 (centres unmarked) [EB-10101]                 h           13.7
1  Clc1ccc([C@]23CNC[C@H]2C3)cc1Cl [amitifadine]                 h           4.31

----------
Experiment: Single dose 300 mg / 450 mg pharmacokinetic, safety and tolerability study in healthy male and female subjects
Conditions: both, human, plasma, po, 450 mg
property.measured: Cmax (ng/mL)

In [3]: df
Out[3]:
                                   compound  readout_value
0  O=C1NCC2(c3ccc(Cl)c(Cl)c3)CC12 (centres unmarked)           2950
1           Clc1ccc([C@]23CNC[C@H]2C3)cc1Cl           5110

----------
Assay: Single dose 300 mg / 450 mg pharmacokinetic, safety and tolerability study in healthy male and female subjects
Conditions: female, human, plasma, po, 450 mg
Parameter: Tmax. Scope: all listed entries.
property.measured: Tmax

>>> print(df.to_string())
                                   molecule  readout_value
0  O=C1NCC2(c3ccc(Cl)c(Cl)c3)CC12 (centres unmarked) [EB-10101]          8.8 h
1  Clc1ccc([C@]23CNC[C@H]2C3)cc1Cl [amitifadine]            3 h

----------
Assay: 12-month dog toxicity and toxicokinetic study
Format: in vivo
Settings: female, beagle, dog, plasma, po, 6 mg/kg/day, females, 6 mg/kg/day, Day 0
property.measured: Cmax (ng/mL)

In [3]: df
Out[3]:
                  structure_smiles  property_measured  readout_value
0  Clc1ccc([C@]23CNC[C@H]2C3)cc1Cl               Cmax           3680

----------
Assay: Multiple-dose safety and PK study 25 mg BID and 50 mg BID for 10 days
Format: in vivo, human
Settings: male, human, in vivo, 50 mg, 50 mg BID; Day 10; healthy male subjects; mean (SD)
property.measured: Cmax (ng/mL)

                  structure_smiles  readout_value
0  Clc1ccc([C@]23CNC[C@H]2C3)cc1Cl            744

----------
Experiment: 2-week dog toxicity and toxicokinetic study
Format: in vivo
Conditions: male, beagle, in vivo, po, 10 mg/kg/day, males, 10 mg/kg/day, Day 0, read-out: AUC0-24
property.measured: AUC(0-t) (ng·h/mL)

>>> df
                  structure_smiles  property_measured  readout_value
0  Clc1ccc([C@]23CNC[C@H]2C3)cc1Cl           AUC(0-t)          13800

----------
Assay: 26-week rat toxicity and toxicokinetic study
Assay type: in vivo
Conditions: male, Crl:CD(SD)IGS BR, rat, plasma, po, 8 mg/kg/day, males, 8 mg/kg/day, Day 177; read-out: AUC0-24
property.measured: AUC(0-t)

In [3]: df
Out[3]:
                  structure_smiles  readout_value
0  Clc1ccc([C@]23CNC[C@H]2C3)cc1Cl   7130 ng·h/mL

----------
Experiment: Single-dose (25 mg) food effect crossover study in 24 men (DOV 947-003)
Format: in vivo, human
Details: male, human, in vivo, po, single oral dose 25 mg, Fed, 24 healthy male subjects
property.measured: Cmax (ng/mL)

                                   compound  property_measured  units_of_measure  readout_value
0  Clc1ccc([C@]23CNC[C@H]2C3)cc1Cl [amitifadine]               Cmax             ng/mL            224

----------
Test: Single rising oral dose (10-150 mg IR) safety, tolerance and pharmacokinetics in healthy male volunteers
Type: in vivo, human
Conditions: male, human, plasma, oral, 10 mg, Mean (n = 7)
property.measured: AUC(0-inf) (ng·h/mL)

In [3]: df
Out[3]:
                  structure_smiles  property_measured  readout_value
0  Clc1ccc([C@]23CNC[C@H]2C3)cc1Cl         AUC(0-inf)            429

----------
Assay: Single dose 300 mg / 450 mg pharmacokinetic, safety and tolerability study in healthy male and female subjects
Conditions: both, human, plasma, po, 300 mg, t½ (Harmonic mean), single oral 300 mg DOV 21,947 HCl IR; N = 10
property.measured: half-life

>>> print(df.to_string())
                                   molecule  property_measured  readout_value
0           Clc1ccc([C@]23CNC[C@H]2C3)cc1Cl          half-life          4.2 h
1  O=C1NCC2(c3ccc(Cl)c(Cl)c3)CC12 (centres unmarked)          half-life         14.3 h

----------
Assay: Single dose 300 mg / 450 mg pharmacokinetic, safety and tolerability study in healthy male and female subjects
Details: female, human, plasma, po, 300 mg
property.measured: concentration at 24 h (ng/mL)

>>> df
                                   compound      property_measured  units_of_measure  readout_value
0  O=C1NCC2(c3ccc(Cl)c(Cl)c3)CC12 (stereo not shown) [EB-10101]  concentration at 24 h             ng/mL           1190

----------
Assay: 13-week rat toxicity and toxicokinetic study
Format: in vivo
Conditions: both sexes, Crl:CD(SD)IGS BR, rat, in vivo; oral gavage, 13 weeks
property.measured: NOAEL at 13 weeks (mg/kg/day)

In [3]: df
Out[3]:
                  structure_smiles  property_measured  readout_value
0  Clc1ccc([C@]23CNC[C@H]2C3)cc1Cl  NOAEL at 13 weeks             10

----------
Experiment: 13-week dog toxicity and toxicokinetic study
Format: in vivo
Conditions: male, beagle, dog, in vivo, po, 20 mg/kg/day, males, 20 mg/kg/day, Day 86
property.measured: Cmax

>>> print(df.to_string())
                                   compound  readout_value
0  Clc1ccc([C@]23CNC[C@H]2C3)cc1Cl [amitifadine]     7230 ng/mL

----------
Assay: Single dose 300 mg / 450 mg pharmacokinetic, safety and tolerability study in healthy male and female subjects
Conditions: both, human, plasma, po, 300 mg
property.measured: concentration at 10 h (ng/mL)

>>> df
                                   molecule  readout_value
0  O=C1NCC2(c3ccc(Cl)c(Cl)c3)CC12 (stereo not shown)           1830

----------
Assay: 12-month dog toxicity and toxicokinetic study
Assay type: in vivo
Conditions: male, beagle, dog, plasma, po, 2 mg/kg/day, males, 2 mg/kg/day, Day 0; read-out: AUC0-24
Experimental: Blood samples were collected on Days 0, 91, 181, 268 and 358 from up to 4 animals/gender/group. Plasma samples collected on Days 91, 181, 268, as well as all plasma samples collected from the control group were not evaluated. For toxicology assessment four dogs of each gender were included in each group. Assessments included clinical observations, body weight, and food consumption measures which were recorded periodically during the study. […]
property.measured: AUC(0-t) (ng·h/mL)

In [3]: df
Out[3]:
                                   compound  property_measured  readout_value
0  Clc1ccc([C@]23CNC[C@H]2C3)cc1Cl [amitifadine]           AUC(0-t)           2130

----------
Assay: Single rising oral dose (10-150 mg IR) safety, tolerance and pharmacokinetics in healthy male volunteers
Assay type: in vivo, human
Settings: human, plasma, oral, 50 mg, individual subject
property.measured: AUC(0-inf) (ng·h/mL)

>>> df
                  structure_smiles  units_of_measure  readout_value
0  Clc1ccc([C@]23CNC[C@H]2C3)cc1Cl           ng·h/mL           1690

----------
Experiment: 26-week rat toxicity and toxicokinetic study
Format: in vivo
Details: male, Crl:CD(SD)IGS BR, rat, in vivo, po, 8 mg/kg/day, males, 8 mg/kg/day, Day 0
property.measured: Tmax (h)

>>> print(df.to_string())
                  structure_smiles  readout_value
0  Clc1ccc([C@]23CNC[C@H]2C3)cc1Cl              1
